FYI, the data here is from patent US20160264570A1.

# Tested on: Asexual parasites of P. falciparum strain 3D7
# Experiment Description: SYBR Green viability assay on asexual parasites
# Type: cell-based, Plasmodium falciparum
# Condition: Plasmodium falciparum, 3D7, Table 7; read-out: Activity against asexual parasites EC50
# Fulfilled = EC50 below 90 nM (exclusive); Not fulfilled = EC50 at/above 90 nM

Cn1c(=O)n(-c2cccc(C(F)(F)F)c2)c2c3cc(-c4ccc(C(N)=O)nc4)ccc3ncc21	Fulfilled
O=c1[nH]c2cnc3ccc(-c4cnc5ccccc5c4)cc3c2n1-c1cccc(C(F)(F)F)c1	Not fulfilled
NC(=O)c1ccc(-c2ccc3ncc4[nH]c(=O)n(-c5cccc(C(F)(F)F)c5)c4c3c2)cc1	Fulfilled
CC(=O)Nc1ccc(-c2ccc3ncc4[nH]c(=O)n(-c5cccc(C(F)(F)F)c5)c4c3c2)cn1	Fulfilled

Data request: Consider the molecule "O=c1[nH]c2cnc3ccc(-c4ccncc4)cc3c2n1-c1cccc(C(F)(F)F)c1" . Is its EC50 strictly less than 90 nM?
Data returned: Not fulfilled

Data request: Dear reviewer, please state whether "CS(=O)(=O)c1ccc(-c2ccc3ncc4[nH]c(=O)n(-c5cccc(C(F)(F)F)c5)c4c3c2)cc1" has EC50 strictly beneath 90 nM.
Data returned: Not fulfilled

Data request: Here's an entry: "O=c1[nH]c2cnc3ccc(-c4ccc(O)cc4)cc3c2n1-c1cccc(C(F)(F)F)c1" . Is its EC50 below 90 nM?
Data returned: Not fulfilled

Data request: Just wondering, is EC50 of "Nc1ccc(-c2ccc3ncc4[nH]c(=O)n(-c5cccc(C(F)(F)F)c5)c4c3c2)cc1" below 90 nM?
Data returned: Not fulfilled

Data request: Please indicate whether the reported EC50 of "Cn1c(=O)n(-c2cccc(C(F)(F)F)c2)c2c3cc(-c4cccc(N)c4)ccc3ncc21" is strictly below 90 nM.
Data returned: Fulfilled

Data request: # TODO verify EC50 < 90 nM strictly for this molecule: "Nc1ccc(-c2ccc3ncc4[nH]c(=O)n(-c5cccc(C(F)(F)F)c5)c4c3c2)cn1"
Data returned: Not fulfilled

Data request: Consider the molecule "Cn1c(=O)n(-c2cccc(C(F)(F)F)c2)c2c3cc(-c4cnc(N)nc4)ccc3ncc21" . Is its EC50 strictly less than 90 nM?
Data returned: Fulfilled

Data request: Just wondering, is EC50 of "O=c1[nH]c2cnc3ccc(-c4cccnc4)cc3c2n1-c1cccc(C(F)(F)F)c1" below 90 nM?
Data returned: Not fulfilled

Data request: Say whether its EC50 is strictly beneath 90 nM. Entry: "Cn1c(=O)n(-c2cccc(C(F)(F)F)c2)c2c3cc(-c4ccc(C(N)=O)cc4)ccc3ncc21"
Data returned: Fulfilled

Data request: I'd appreciate it if you could check whether "Cc1ccc(-c2ccc3ncc4[nH]c(=O)n(-c5cccc(C(F)(F)F)c5)c4c3c2)cn1" has EC50 smaller than 90 nM.
Data returned: Fulfilled

Data request: Criterion: EC50 strictly below 90 nM. Is it met by "Cn1c(=O)n(-c2cccc(C(F)(F)F)c2)c2c3cc(-c4ccc(N)cc4)ccc3ncc21" ?
Data returned: Fulfilled

Data request: Input "Nc1ncc(-c2ccc3ncc4[nH]c(=O)n(-c5cccc(C(F)(F)F)c5)c4c3c2)cn1" ; condition: EC50 strictly below 90 nM. Does it hold?
Data returned: Fulfilled

Data request: Please state whether EC50 is below 90 nM for "Nc1cccc(-c2ccc3ncc4[nH]c(=O)n(-c5cccc(C(F)(F)F)c5)c4c3c2)c1"
Data returned: Not fulfilled
